Target: PDE9A2 (181–506) (Homo sapiens)
Construct: PDE9A2 (181–506)
Experiment: PDE activity assay, PDE9 catalytic domain
Assay type: biochemical
Conditions: means ± SD of at least three independent experiments
The threshold is 50 nM. Values of IC50 beneath it are tagged T; values meeting or exceeding it are tagged F.

> print(dat)
                                   molecule  assigned.label
1  COc1cccc(CN[C@H](C)c2nc3c(cnn3C3CCCC3)c(=O)[nH]2)c1O [Compound 20]               T

Hi there! Is IC50 for C[C@@H](NCc1cc(Cl)ccc1O)c1nc2c(cnn2C2CCCC2)c(=O)[nH]1 [Compound 21] below 50 nM, do you know? T

What do you get for C[C@@H](/N=C/c1cccc(Br)n1)c1nc2c(cnn2C2CCCC2)c(=O)[nH]1 [Compound 28] ? F

----------
Biological target: PDE5A1 (535–860) (Homo sapiens, UniProt O76074)
Test: PDE activity assay, PDE5A1 catalytic domain
Assay type: biochemical
Let's look at some compounds and their measured IC50.
Give a bare numeral; the unit nM is implied.

> print(dat)
                               smiles.input  numeric.readout
1  C[C@@H](NCc1cc(F)ccc1O)c1nc2c(cnn2C2CCCC2)c(=O)[nH]1             1600

// below: IC50 requested for another compound
State the recorded IC50 for this entry: COc1ccc(CN[C@H](C)c2nc3c(cnn3C3CCCC3)c(=O)[nH]2)c(O)c1 1900

----------
Target: PDE3A (679–1087) (Homo sapiens)
Construct: PDE3A (679–1087)
Sequence (Q14432 679-1087): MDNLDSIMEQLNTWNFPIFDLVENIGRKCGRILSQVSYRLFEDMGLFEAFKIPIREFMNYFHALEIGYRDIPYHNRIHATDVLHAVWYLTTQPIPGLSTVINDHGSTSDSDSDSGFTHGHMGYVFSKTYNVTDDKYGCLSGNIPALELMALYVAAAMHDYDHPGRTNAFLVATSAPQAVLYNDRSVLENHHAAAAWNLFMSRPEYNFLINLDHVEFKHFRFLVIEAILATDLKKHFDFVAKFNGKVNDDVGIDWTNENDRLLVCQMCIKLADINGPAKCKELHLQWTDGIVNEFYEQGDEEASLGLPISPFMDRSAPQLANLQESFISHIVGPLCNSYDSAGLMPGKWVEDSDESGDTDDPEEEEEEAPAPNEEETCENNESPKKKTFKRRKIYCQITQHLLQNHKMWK
Assay: PDE activity assay, PDE3A catalytic domain
Assay type: biochemical
property-label: IC50

State the recorded IC50 for this entry: COc1ccc(CN[C@H](C)c2nc3c(cnn3C3CCCC3)c(=O)[nH]2)c(O)c1 [Compound 16] > 10000 nM

What do you get for C[C@@H](NCc1cc(F)ccc1O)c1nc2c(cnn2C2CCCC2)c(=O)[nH]1 [Compound 22] ? > 10000 nM

----------
Biological target: PDE8A1 (480–820) (Homo sapiens)
Construct: PDE8A1 (480–820)
Sequence (O60658 480-820): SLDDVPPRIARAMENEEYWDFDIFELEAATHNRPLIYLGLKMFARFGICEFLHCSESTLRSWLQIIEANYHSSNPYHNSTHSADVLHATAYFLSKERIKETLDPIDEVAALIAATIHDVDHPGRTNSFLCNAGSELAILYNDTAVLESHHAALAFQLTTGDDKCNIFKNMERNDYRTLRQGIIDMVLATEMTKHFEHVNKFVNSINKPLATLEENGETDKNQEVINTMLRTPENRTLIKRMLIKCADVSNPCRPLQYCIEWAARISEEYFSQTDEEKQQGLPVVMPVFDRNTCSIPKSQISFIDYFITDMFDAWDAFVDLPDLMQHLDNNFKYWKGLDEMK
Experiment: PDE activity assay, PDE8A1 catalytic domain
Assay type: biochemical
Let's look at some compounds and their measured IC50.

> print(dat)
                               smiles.input  property.label      result
1  C[C@@H](NCc1cc(F)ccc1O)c1nc2c(cnn2C2CCCC2)c(=O)[nH]1            IC50  > 50000 nM

// below: IC50 requested for another compound
State the recorded IC50 for this entry: COc1ccc(CN[C@H](C)c2nc3c(cnn3C3CCCC3)c(=O)[nH]2)c(O)c1 > 50000 nM

----------
Molecular target: PDE2A3 (580–941) (Homo sapiens, UniProt O00408)
Construct: PDE2A3 (580–941)
Sequence (O00408 580-941): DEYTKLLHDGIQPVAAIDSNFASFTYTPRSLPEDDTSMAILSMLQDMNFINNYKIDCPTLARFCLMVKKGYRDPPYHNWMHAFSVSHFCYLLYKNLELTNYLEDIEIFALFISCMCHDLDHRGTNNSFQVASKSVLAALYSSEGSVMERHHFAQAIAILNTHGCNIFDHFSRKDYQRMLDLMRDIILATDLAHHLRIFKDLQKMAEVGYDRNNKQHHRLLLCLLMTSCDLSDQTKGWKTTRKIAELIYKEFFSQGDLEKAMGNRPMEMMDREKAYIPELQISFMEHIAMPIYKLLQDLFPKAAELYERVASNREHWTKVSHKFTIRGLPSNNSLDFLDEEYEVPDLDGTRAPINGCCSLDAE
Experiment: PDE activity assay, PDE2A3 catalytic domain
Type: biochemical
property-label: IC50 (nM)
Give a bare numeral; the unit nM is implied.

State the recorded IC50 for this entry: C[C@@H](NCc1cc(F)ccc1O)c1nc2c(cnn2C2CCCC2)c(=O)[nH]1 13000

----------
Experiment: PAMPA-BBB in vitro blood-brain barrier permeation assay
Assay type: in vitro ADME
Conditions: PAMPA; read-out: Permeability
property-label: Papp at 10 h, 100 μg/mL (×10⁻⁶ cm/s)
Give a bare numeral; the unit ×10⁻⁶ cm/s is implied.

State the recorded Papp at 10 h, 100 μg/mL for this entry: CN(C)CCCN1c2ccccc2Sc2ccc(Cl)cc21 [Chlorpromazine, reference compound] 6

----------
Let's look at some compounds and their measured IC50.
Molecular target: PDE10A2 (448–789) (Homo sapiens, UniProt Q9Y233)
Construct: PDE10A2 (448–789)
Sequence (Q9Y233 714-1055): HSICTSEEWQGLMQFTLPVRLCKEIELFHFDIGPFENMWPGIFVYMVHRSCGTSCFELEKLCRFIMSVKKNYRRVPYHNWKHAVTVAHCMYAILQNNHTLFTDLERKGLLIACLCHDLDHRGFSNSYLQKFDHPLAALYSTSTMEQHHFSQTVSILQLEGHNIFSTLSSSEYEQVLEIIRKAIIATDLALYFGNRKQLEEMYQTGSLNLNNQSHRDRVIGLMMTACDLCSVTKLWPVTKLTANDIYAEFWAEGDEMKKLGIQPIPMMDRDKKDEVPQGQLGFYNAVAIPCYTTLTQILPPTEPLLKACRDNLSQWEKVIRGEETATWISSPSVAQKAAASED
Assay: PDE activity assay, PDE10A2 catalytic domain
Assay type: biochemical
Give a bare numeral; the unit nM is implied.

> print(dat)
                                   compound  measurement.units  numeric.readout
1  C[C@@H](NCc1cc(F)ccc1O)c1nc2c(cnn2C2CCCC2)c(=O)[nH]1 [Compound 22]                 nM            33000

// below: IC50 requested for another compound
State the recorded IC50 for this entry: COc1ccc(CN[C@H](C)c2nc3c(cnn3C3CCCC3)c(=O)[nH]2)c(O)c1 [Compound 16] 6900

----------
Let's look at some molecules and their measured log10 of IC50.
Target: PDE9A2 (181–506) (Homo sapiens, UniProt O76083)
Construct: PDE9A2 (181–506)
Sequence (O76083 241-566): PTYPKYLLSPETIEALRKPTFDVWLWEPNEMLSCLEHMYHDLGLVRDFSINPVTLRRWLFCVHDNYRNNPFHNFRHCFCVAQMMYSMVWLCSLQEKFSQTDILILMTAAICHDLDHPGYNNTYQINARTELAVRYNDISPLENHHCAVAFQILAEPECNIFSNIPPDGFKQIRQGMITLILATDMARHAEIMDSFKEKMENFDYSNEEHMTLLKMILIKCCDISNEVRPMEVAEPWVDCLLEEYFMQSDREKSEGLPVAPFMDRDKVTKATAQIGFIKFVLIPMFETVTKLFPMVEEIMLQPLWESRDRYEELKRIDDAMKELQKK
Assay: PDE activity assay, PDE9 catalytic domain
Assay type: biochemical
Details: means ± SD of at least three independent experiments
Values reflect log10 of reported IC50 (nM).

State the recorded log10 of IC50 for this entry: C[C@@H](NCc1ccccn1)c1nc2c(cnn2C2CCCC2)c(=O)[nH]1 [Compound 26] 1.89

What do you get for C[C@@H](NCc1ccccc1O)c1nc2c(cnn2C2CCCC2)c(=O)[nH]1 [Compound 15] ? 1.76

What do you get for C[C@H](NCc1ccccc1O)c1nc2c(cnn2C2CCCC2)c(=O)[nH]1 [Compound 18] ? 2.06

What do you get for C[C@@H](/N=C/c1ccccc1O)c1nc2c(cnn2C2CCCC2)c(=O)[nH]1 [Compound 12] ? 2.32

What do you get for COc1ccc(O)c(CN[C@H](C)c2nc3c(cnn3C3CCCC3)c(=O)[nH]2)c1 [Compound 19] ? 1.52

What do you get for COc1ccc(/C=N/[C@H](C)c2nc3c(cnn3C3CCOCC3)c(=O)[nH]2)c(O)c1 [Compound 14] ? 1.08

What do you get for C[C@@H](NCc1cc(F)ccc1O)c1nc2c(cnn2C2CCCC2)c(=O)[nH]1 [Compound 22] ? 1.49

What do you get for COc1ccc(CN[C@H](C)c2nc3c(cnn3C3CCOCC3)c(=O)[nH]2)c(O)c1 [Compound 17] ? 1.71

What do you get for C[C@@H](NCc1cc([N+](=O)[O-])ccc1O)c1nc2c(cnn2C2CCCC2)c(=O)[nH]1 [Compound 23] ? 1.56

----------
Biological target: PDE9A2 (181–506) (Homo sapiens, UniProt O76083)
Construct: PDE9A2 (181–506)
Assay: PDE activity assay, PDE9 catalytic domain
Format: biochemical
Conditions: means ± SD of at least three independent experiments
The threshold is 50 nM. Values of IC50 beneath it are tagged condition met; values meeting or exceeding it are tagged condition not met.

Hi there! Is IC50 for C[C@@H](NCc1cc(N(C)C)ccc1O)c1nc2c(cnn2C2CCCC2)c(=O)[nH]1 below 50 nM, do you know? condition met

What do you get for C[C@H](NCc1ccccn1)c1nc2c(cnn2C2CCCC2)c(=O)[nH]1 ? condition not met

----------
Target: PDE9A2 (181–506) (Homo sapiens)
Construct: PDE9A2 (181–506)
Experiment: PDE activity assay, PDE9 catalytic domain
Assay type: biochemical
Details: means ± SD of at least three independent experiments
property-label: IC50 (nM)
Give a bare numeral; the unit nM is implied.

Some solved entries appear below for comparison.
> print(dat)
                                   molecule  property.label  numeric.readout
1  COc1ccc(/C=N/[C@H](C)c2nc3c(cnn3C3CCCC3)c(=O)[nH]2)c(O)c1 [Compound 13]            IC50               35
2  Cc1cccc(CN[C@H](C)c2nc3c(cnn3C3CCCC3)c(=O)[nH]2)n1 [Compound 27]            IC50               60

// below: IC50 requested for another molecule
State the recorded IC50 for this entry: C[C@@H](NCc1cccc(Br)n1)c1nc2c(cnn2C2CCCC2)c(=O)[nH]1 [Compound 29] 38
